Overview of reported fraction unbound across a group of molecules:
Assay: Fraction unbound in human plasma
Format: ADME, cell-free
Property Name: fraction unbound

> print(dat)
                            chemical.string  reported.value
1  Cn1nc(C2CC2)c2ccc(Nc3n[nH]c4cccnc34)cc21           0.022
2  Cn1nc(C2CC2)c2ccc(Nc3n[nH]c4nccnc34)cc21            0.03
3  c1cnc2c(Nc3ccc4c(C5CC5)n[nH]c4c3)n[nH]c2c1           0.031
4            Fc1ccc(Nc2n[nH]c3cccnc23)cc1Cl           0.017
5  Cn1nc(C2CC2)c2ccc(Nc3n[nH]c4ncccc34)cc21            0.03
6      Cc1nn(C)c2cc(Nc3n[nH]c4cccnc34)ccc12           0.058
7         Cn1ncc2ccc(Nc3n[nH]c4cccnc34)cc21           0.093
8         Cn1ncc2cc(Nc3n[nH]c4cccnc34)ccc21           0.118

* * *

Molecular target: Metabotropic glutamate receptor 4 (Homo sapiens, UniProt Q14833)
Sequence (Q14833 whole entry): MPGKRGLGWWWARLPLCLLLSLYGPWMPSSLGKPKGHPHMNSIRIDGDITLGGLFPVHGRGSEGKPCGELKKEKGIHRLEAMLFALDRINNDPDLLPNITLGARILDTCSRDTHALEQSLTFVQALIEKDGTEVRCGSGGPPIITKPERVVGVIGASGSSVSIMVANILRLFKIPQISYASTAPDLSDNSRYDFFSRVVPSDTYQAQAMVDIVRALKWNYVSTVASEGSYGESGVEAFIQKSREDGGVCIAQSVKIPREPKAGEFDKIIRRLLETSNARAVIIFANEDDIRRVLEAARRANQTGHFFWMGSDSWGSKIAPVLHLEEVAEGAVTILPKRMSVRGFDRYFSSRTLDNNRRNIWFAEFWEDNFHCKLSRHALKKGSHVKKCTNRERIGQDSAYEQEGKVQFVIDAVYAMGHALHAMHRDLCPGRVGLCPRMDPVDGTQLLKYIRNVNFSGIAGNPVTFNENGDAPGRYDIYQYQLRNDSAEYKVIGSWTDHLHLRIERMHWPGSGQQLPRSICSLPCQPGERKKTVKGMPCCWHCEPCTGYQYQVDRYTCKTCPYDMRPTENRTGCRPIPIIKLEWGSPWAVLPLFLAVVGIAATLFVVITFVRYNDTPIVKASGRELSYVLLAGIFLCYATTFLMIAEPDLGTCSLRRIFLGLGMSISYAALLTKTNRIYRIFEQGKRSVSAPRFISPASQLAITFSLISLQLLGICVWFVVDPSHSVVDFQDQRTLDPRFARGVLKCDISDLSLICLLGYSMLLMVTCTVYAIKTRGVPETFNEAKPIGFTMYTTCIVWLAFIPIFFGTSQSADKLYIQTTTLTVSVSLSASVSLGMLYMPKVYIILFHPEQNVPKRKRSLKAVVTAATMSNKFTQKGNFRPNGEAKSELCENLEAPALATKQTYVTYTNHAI
Assay: Positive allosteric modulation of human mGluR4 expressed in CHO cells co-expressing Gqi5 assessed as increase in glutamate-induced calcium flux preincubated for 2.5 mins followed by glutamate addition by Fluo-4-AM dye based fluorescence assay
Type: functional, cell-based
Conditions: read-out: EC50
pEC50: −log10 of the molar value.
Property Name: pEC50

> print(dat)
                            chemical.string  property.name  reported.value
1  Cn1nc(CC(F)(F)F)c2ccc(Nc3n[nH]c4cccnc34)cc21          pEC50            7.02
2      Cc1nn(C)c2cc(Nc3n[nH]c4cccnc34)ccc12          pEC50            7.11
3  Cn1nc(C2CC2)c2ncc(Nc3n[nH]c4cccnc34)cc21          pEC50            6.33
4    CCn1nc(Cl)c2cc(Nc3n[nH]c4cccnc34)ccc21          pEC50            6.09

* * *

Target: Metabotropic glutamate receptor 4 (Homo sapiens, UniProt Q14833)
Assay: Positive allosteric modulation of human mGluR4 expressed in CHO cells co-expressing Gqi5 assessed as increase in glutamate-induced calcium flux preincubated for 2.5 mins followed by glutamate addition by Fluo-4-AM dye based fluorescence assay
Type: functional, cell-based
Conditions: read-out: EC50
pEC50: −log10 of the molar value.
Property Name: pEC50

> print(dat)
                            chemical.string  property.name  reported.value
1  Cn1nc(C(=O)NC2CC(F)(F)C2)c2ccc(Nc3n[nH]c4cccnc34)cc21          pEC50            6.94
2     CCn1nc(C)c2cc(Nc3n[nH]c4cccnc34)ccc21          pEC50            7.02
3  Cn1nc(C2(C)CC2)c2ccc(Nc3n[nH]c4ncccc34)cc21          pEC50            6.89
